# Tested on: 422866-222-R5-J1-PDC complex spheroid viability
# Test: Anticancer human tumor 422866-222-R5-J1-PDC patient-derived pancreatic adenocarcinoma cell line growth inhibition [POLQ]
# Condition Set: second compound 0.0316 µM; first compound 1 µM; stronger effect = lower value
Observation Type: viability, T/C

Solved cases below.
{"columns": ["Molecule", "Observed"],
 "data": [
  ["CCc1cc2c(N3CCc4c(cc(Cn5ccnc5)cc4-c4cn(C)nc4C(F)(F)F)C3=O)cc(C)nc2c(OC)n1 + Cc1cccc(N(C)C(=O)C2C(O)CCN2c2nc(C)cc(C(F)(F)F)c2C#N)c1", "99.6%"],
  ["COc1cccc(OCCCN)c1-c1cc(Nc2cnc(C#N)cn2)n[nH]1 + Nc1ccc(C#CCN(C(=O)Cc2ncc(C(F)(F)F)cc2C(F)(F)F)c2ccc(F)cc2)nn1", "44.1%"]
]}

Quick one: viability, T/C of CC1COCCN1c1cc(C2(S(C)(=N)=O)CC2)nc(-c2ccnc3[nH]ccc23)n1 (stereo not drawn) + COC1C(OC(N)=O)C(O)C(Oc2ccc3c(O)c(NC(=O)c4ccc(O)c(CC=C(C)C)c4)c(=O)oc3c2C)OC1(C)C ? 75.6%

---

# System: 422866-222-R5-J1-PDC complex spheroid viability
# Test: Anticancer human tumor 422866-222-R5-J1-PDC cell line growth inhibition [POLQ];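 further: spheroids exposed to compounds for one week before readout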;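 on viability, T/C: percent of DMSO vehicle wells luminescence so 100% = untreated viability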
# Condition Set: second compound 0.1 µM; first compound 10 µM; stronger effect = lower value
Observation Type: viability, T/C (%)
Return type: number; implicit unit %.

{"columns": ["Compound", "Observation Type", "Readout Unit", "Observed"],
 "data": [
  ["COc1cc(C2c3cc4c(cc3C(OC3OC5COC(C)OC5C(O)C3O)C3COC(=O)C23)OCO4)cc(OC)c1O (stereo not drawn) + Nc1ccc(C#CCN(C(=O)Cc2ncc(C(F)(F)F)cc2C(F)(F)F)c2ccc(F)cc2)nn1", "viability, T/C", "%", 28.8],
  ["CCc1cc2c(N3CCc4c(cc(Cn5ccnc5)cc4-c4cn(C)nc4C(F)(F)F)C3=O)ccnc2c(OC)n1 + Nc1ccc(C#CCN(C(=O)Cc2ncc(C(F)(F)F)cc2C(F)(F)F)c2ccc(F)cc2)nn1", "viability, T/C", "%", 120]
]}

Now consider a different compound.
Field request: viability, T/C | item: O=c1[nH]cc(F)c(=O)[nH]1 + COC1C(OC(N)=O)C(O)C(Oc2ccc3c(O)c(NC(=O)c4ccc(O)c(CC=C(C)C)c4)c(=O)oc3c2C)OC1(C)C 79

---

Some compounds, each annotated with its measured viability, T/C.
# Tested on: 422866-222-R5-J1-PDC complex spheroid viability
# Test: Anticancer human tumor 422866-222-R5-J1-PDC cell line growth inhibition [POLQ];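 further: spheroids exposed to compounds for one week before readout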;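 on viability, T/C: percent of DMSO vehicle wells luminescence so 100% = untreated viability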
# Condition Set: second compound 0.1 µM; first compound 3.16 µM; stronger effect = lower value
Value expressed in %; do not type the unit.

Worked set:
{"columns": ["Compound", "Observed"],
 "data": [
  ["CC1COCCN1c1cc(C2(S(C)(=N)=O)CC2)nc(-c2ccnc3[nH]ccc23)n1 (stereo not given) + Cc1cccc(N(C)C(=O)C2C(O)CCN2c2nc(C)cc(C(F)(F)F)c2C#N)c1", 45.8],
  ["COc1cc2cc(C(=O)CCC(=O)O)sc2cc1OC + Cc1cccc(N(C)C(=O)C2C(O)CCN2c2nc(C)cc(C(F)(F)F)c2C#N)c1", 75.5],
  ["O=C(c1cc(Cc2n[nH]c(=O)c3ccccc23)ccc1F)N1CCN(C(=O)C2CC2)CC1 + Nc1ccc(C#CCN(C(=O)Cc2ncc(C(F)(F)F)cc2C(F)(F)F)c2ccc(F)cc2)nn1", 80.2],
  ["C=CC(=O)N1CCN(c2nc(=O)n(-c3c(C)ccnc3C(C)C)c3nc(-c4c(O)cccc4F)c(F)cc23)C(C)C1 (stereo not given) + Cc1cccc(N(C)C(=O)C2C(O)CCN2c2nc(C)cc(C(F)(F)F)c2C#N)c1", 21.2]
]}

GET /values?readout=viability, T/C&system=422866-222-R5-J1-PDC complex spheroid viability&item= COc1cc2cc(C(=O)CCC(=O)O)sc2cc1OC + COC1C(OC(N)=O)C(O)C(Oc2ccc3c(O)c(NC(=O)c4ccc(O)c(CC=C(C)C)c4)c(=O)oc3c2C)OC1(C)C 88.1

---

# Test system: 422866-222-R5-J1-PDC complex spheroid viability
# Test: Anticancer human tumor 422866-222-R5-J1-PDC cell line growth inhibition [POLQ];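 further: spheroids exposed to compounds for one week before readout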;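 on viability, T/C: percent of DMSO vehicle wells luminescence so 100% = untreated viability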
# Condition Set: second compound 0.0316 µM; first compound 3.16 µM; stronger effect = lower value
Field: label. Allowed values: yes (viability, T/C < 80%) or no (viability, T/C >= 80%).

{"columns": ["Compound", "Tested On", "Cat"],
 "data": [
  ["COc1cc(C2c3cc4c(cc3C(OC3OC5COC(C)OC5C(O)C3O)C3COC(=O)C23)OCO4)cc(OC)c1O (stereo not drawn) + Nc1ccc(C#CCN(C(=O)Cc2ncc(C(F)(F)F)cc2C(F)(F)F)c2ccc(F)cc2)nn1", "422866-222-R5-J1-PDC complex spheroid viability", "yes"]
]}

Quick check: viability, T/C of CCc1cc2c(N3CCc4c(cc(Cn5ccnc5)cc4-c4cn(C)nc4C(F)(F)F)C3=O)cc(C)nc2c(OC)n1 + COC1C(OC(N)=O)C(O)C(Oc2ccc3c(O)c(NC(=O)c4ccc(O)c(CC=C(C)C)c4)c(=O)oc3c2C)OC1(C)C under 80%? no

Hello, I'm reviewing records and need to know if viability, T/C of COc1ccc([C@@H](O)c2cc(-c3ncnc4cc(N5CCOCC5)ccc34)c(F)cc2Cl)nn1 + Nc1ccc(C#CCN(C(=O)Cc2ncc(C(F)(F)F)cc2C(F)(F)F)c2ccc(F)cc2)nn1 is below 80%. Could you check? yes

is_below(viability, T/C, 80%) for CCCS(=O)(=O)Nc1ccc(F)c(C(=O)c2c[nH]c3ncc(-c4ccc(Cl)cc4)cc23)c1F + COC1C(OC(N)=O)C(O)C(Oc2ccc3c(O)c(NC(=O)c4ccc(O)c(CC=C(C)C)c4)c(=O)oc3c2C)OC1(C)C ? no

Consider the compound CC1COCCN1c1cc(C2(O)CC3CCC(C2)O3)c2cnn(-c3ccn[nH]3)c2n1 (stereo not drawn) + Cc1cccc(N(C)C(=O)C2C(O)CCN2c2nc(C)cc(C(F)(F)F)c2C#N)c1 . Is its viability, T/C strictly less than 80%? yes

# TODO verify viability, T/C < 80% strictly for this compound: CC(C)n1c(=O)n(C)c2cnc3cc(F)c(-c4ccc(OCCCN5CCCCC5)nc4)cc3c21 + Nc1ccc(C#CCN(C(=O)Cc2ncc(C(F)(F)F)cc2C(F)(F)F)c2ccc(F)cc2)nn1 no

---

Each record here notes measured pIC50.
# Test system: 422866-222-R5-J1-PDC complex spheroid viability
# Test: Anticancer human tumor 422866-222-R5-J1-PDC cell line growth inhibition [POLQ];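 further: spheroids exposed to compounds for one week before readout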
# Condition Set: curve of first compound; second compound 0.316 µM
pIC50: −log10 of the molar value.

Some entries whose results are on file:
{"columns": ["Compound", "pIC50"],
 "data": [
  ["Cn1ncnc1[C@H]1c2n[nH]c(=O)c3cc(F)cc(c23)N[C@@H]1c1ccc(F)cc1 + Cc1cccc(N(C)C(=O)C2C(O)CCN2c2nc(C)cc(C(F)(F)F)c2C#N)c1", "< 7.00"],
  ["C=CCn1c(=O)c2cnc(Nc3ccc(N4CCN(C)CC4)cc3)nc2n1-c1cccc(C(C)(C)O)n1 + Cc1cccc(N(C)C(=O)C2C(O)CCN2c2nc(C)cc(C(F)(F)F)c2C#N)c1", 6.52],
  ["CC1COCCN1c1cc(C2(S(C)(=N)=O)CC2)nc(-c2ccnc3[nH]ccc23)n1 (stereo unspecified) + Nc1ccc(C#CCN(C(=O)Cc2ncc(C(F)(F)F)cc2C(F)(F)F)c2ccc(F)cc2)nn1", 5.76],
  ["CC1COCCN1c1cc(C2(O)CC3CCC(C2)O3)c2cnn(-c3ccn[nH]3)c2n1 (stereo unspecified) + Cc1cccc(N(C)C(=O)C2C(O)CCN2c2nc(C)cc(C(F)(F)F)c2C#N)c1", "< 5.00"],
  ["CCc1cc2c(N3CCc4c(cc(Cn5ccnc5)cc4-c4cn(C)nc4C(F)(F)F)C3=O)cc(C)nc2c(OC)n1 + COC1C(OC(N)=O)C(O)C(Oc2ccc3c(O)c(NC(=O)c4ccc(O)c(CC=C(C)C)c4)c(=O)oc3c2C)OC1(C)C", "< 5.00"]
]}

Next compound, pIC50 to be filled in.
Enter reported pIC50 observed with 422866-222-R5-J1-PDC complex spheroid viability for O=C(c1cc(Cc2n[nH]c(=O)c3ccccc23)ccc1F)N1CCN(C(=O)C2CC2)CC1 + COC1C(OC(N)=O)C(O)C(Oc2ccc3c(O)c(NC(=O)c4ccc(O)c(CC=C(C)C)c4)c(=O)oc3c2C)OC1(C)C > 7.50
